molecular target: HIF-2α HIS TAG-PASB Domain (Homo sapiens, UniProt Q99814); construct: 100 nM HIF-2α HIS TAG-PASB Domain; assay: HIF-2α Scintillation Proximity Assay (SPA); assay type: binding; settings: read-out: Scintillation Proximity Assay IC50
Sequence (Q99814 240-350 limits assumed): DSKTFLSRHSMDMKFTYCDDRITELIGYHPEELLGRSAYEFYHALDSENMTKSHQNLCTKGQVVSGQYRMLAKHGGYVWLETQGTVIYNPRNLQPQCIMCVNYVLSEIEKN
pIC50: −log10 of the molar value.
Listed below: pIC50 values for each entry.

{"compound": "CNCCOc1ccc(S(=O)(=O)C(F)(F)F)c2c1CC(F)(F)C2O (stereo not shown) [Compound 650]", "endpoint": "pIC50", "result": "< 6.00"}

# context switch: different compound, same pIC50
Task: Sample N#Cc1cc(Oc2ccc(S(=O)(=O)C(F)(F)F)c3c2CC(F)(F)[C@H]3O)c[n+]([O-])c1 [Compound 267] — what was its pIC50?
Output: 6.60 to 7.30
